Consider the following compounds and their measured IC50 readings.
Biological target: recombinant N-terminal GST-tagged human Rho kinase 1 (ROCK1, amino acids 1-535) (Homo sapiens, UniProt Q13464)
Construct: ROCK1, amino acids 1-535; purchased Invitrogen Inc. PV-3691
Sequence (Q13464 1-535): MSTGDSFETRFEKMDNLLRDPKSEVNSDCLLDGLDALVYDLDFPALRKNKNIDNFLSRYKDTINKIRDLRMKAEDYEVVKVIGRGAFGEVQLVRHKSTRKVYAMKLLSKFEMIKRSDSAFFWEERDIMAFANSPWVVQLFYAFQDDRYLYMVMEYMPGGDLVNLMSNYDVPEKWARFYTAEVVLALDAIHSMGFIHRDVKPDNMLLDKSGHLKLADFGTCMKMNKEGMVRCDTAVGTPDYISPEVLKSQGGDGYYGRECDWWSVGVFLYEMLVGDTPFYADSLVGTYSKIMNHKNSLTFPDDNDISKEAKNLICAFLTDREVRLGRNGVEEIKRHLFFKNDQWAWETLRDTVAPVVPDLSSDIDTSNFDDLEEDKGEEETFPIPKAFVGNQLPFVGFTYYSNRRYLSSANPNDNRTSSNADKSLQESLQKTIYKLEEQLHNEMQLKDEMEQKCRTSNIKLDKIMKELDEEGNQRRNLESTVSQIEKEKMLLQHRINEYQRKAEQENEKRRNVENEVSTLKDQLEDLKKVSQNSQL
Test: In vitro Rho kinase assay (luciferase-based ATP consumption), ROCK1
Type: biochemical
Conditions: recombinant GST-tagged human ROCK1, luciferase-based ATP consumption; read-out: ROCK1 IC50

Consider the reported IC50 for these compounds:
Cc1c(-c2ccnc(N)n2)sc2ccc(CNC(=O)Cc3ccc(Br)cc3)cc12 [Example 288]    < 5 µM
Cc1c(-c2ccnc(N)n2)sc2ccc(C(=O)c3ccccc3)cc12 [Example 87]    > 5 µM
Cc1c(-c2ccnc(N)n2)sc2ccc(Cc3cccc(OCCCN)c3)cc12 [Example 31]    < 5 µM
CC(=O)Oc1cccc(Cc2ccc3sc(-c4ccnc(N)n4)c(C)c3c2)c1 [Example 28]    < 5 µM
Cc1c(-c2ccnc(N)n2)sc2ccc(CNC(=O)CCc3cccc(C(F)(F)F)c3)cc12 [Example 294]    < 5 µM

Summary for this compound, Cc1c(-c2ccnc(N)n2)sc2ccc(Cc3cccc(C(=O)NCCN4CCOCC4)c3)cc12 [Example 48] : IC50 is < 5 µM

Summary for this compound, Cc1c(-c2ccnc(N)n2)sc2ccc(CNC(=O)c3ccccc3)cc12 [Example 108] : IC50 is < 5 µM

Summary for this compound, CC1=NN(c2ccc(C(=O)NCc3ccc4sc(-c5ccnc(N)n5)c(C)c4c3)cc2)C(=O)C1 [Example 295] : IC50 is < 5 µM

Summary for this compound, COc1ccc(OC)c(C(=O)NCc2ccc3sc(-c4ccnc(N)n4)c(C)c3c2)c1 [Example 36] : IC50 is < 5 µM

Summary for this compound, Cc1c(-c2ccnc(N)n2)sc2ccc(Cc3cccc(OCCN4CCOCC4)c3)cc12 [Example 29] : IC50 is < 5 µM

Summary for this compound, Cc1c(-c2ccc3[nH]ncc3c2)sc2ccc(Cl)cc12 [Example 10] : IC50 is < 5 µM

Summary for this compound, Cc1c(-c2ccnc(N)n2)sc2ccc(CNC(=O)c3ccc(Cl)nc3)cc12 [Example 148] : IC50 is > 5 µM

Summary for this compound, Cc1c(-c2ccnc(N)n2)sc2ccc(CNC(=O)c3cc(O)ccc3O)cc12 [Example 142] : IC50 is > 5 µM

Summary for this compound, Nc1nccc(-c2cc3ccccc3s2)n1 [Example 2] : IC50 is < 5 µM

Summary for this compound, Cc1c(-c2nccnc2N)sc2ccc(Cl)cc12 [Example 12] : IC50 is > 5 µM

Summary for this compound, Cc1c(-c2ccnc(N)n2)sc2ccc(CNC(=O)Cc3ccc4c(c3)OCO4)cc12 [Example 212] : IC50 is < 5 µM

Summary for this compound, Cc1c(-c2ccnc(N)n2)sc2ccc(CNC(=O)c3ccc(-c4ccc(O)cc4)cc3)cc12 [Example 285] : IC50 is > 5 µM

Summary for this compound, COc1cccc(CCc2ccc3sc(-c4ccnc(N)n4)c(C)c3c2)c1 [Example 90] : IC50 is > 5 µM

Summary for this compound, Cc1ccc(O)c(C(=O)NCc2ccc3sc(-c4ccnc(N)n4)c(C)c3c2)c1 [Example 141] : IC50 is > 5 µM

Summary for this compound, Cc1c(-c2ccnc(N)n2)sc2ccc(CNC(=O)C=O)cc12 [Example 96, Cc1c(sc2ccc(CNC(═O)C═O)cc12)-c3ccnc(N)n3] : IC50 is > 5 µM

Summary for this compound, Cc1cccc(C(=O)NCc2ccc3sc(-c4ccnc(N)n4)c(C)c3c2)c1C [Example 133] : IC50 is < 5 µM
